Listed here: items and their measured inhibition at 0.1 µM.
TESTED_TARGET: PDGF-Ra (Homo sapiens)
Construct: host or cells: G-292 human osteosarcoma cells
MEASUREMENT_PROTOCOL: Inhibitory activity against PDGF-Ra phosphorylation by PDGF-AA stimulation using G292
Type: cell-based
ASSAY_CONDITIONS: G292; figure in parentheses in >100( ); at 100 nM; read-out: PDGF (E) inhibition (%) at 100 nM
READOUT_TYPE: inhibition at 0.1 µM (%)

molecule=COc1cc2nccc(Oc3ccc(NC(=S)NC(=O)c4ccccc4OC)c(Cl)c3)c2cc1OC readout_number=25
molecule=COc1cc2ncnc(Oc3ccc(NC(=O)OCC4CC4)c(Cl)c3)c2cc1OC readout_number=37
molecule=COc1cc2nccc(Oc3cc(C)c(NCCCOc4ccccc4Cl)cc3C)c2cc1OC readout_number=25
molecule=COc1cc2nccc(Oc3cc(C)c(NC(=O)Oc4ccc(-c5ccccc5)cc4)cc3C)c2cc1OC readout_number=45
molecule=COc1cc2nccc(Oc3cc(C)c(NCCOc4c(C)cccc4C)cc3C)c2cc1OC readout_number=33

----------
TESTED_TARGET: c-kit (Homo sapiens)
Construct: MO7e (human megakaryocytic leukemia cell line) which had been arrested for 20 hr; endogenous in cells; host or cells: MO7e human megakaryocytic leukemia cell line
Sequence (P10721 26-976): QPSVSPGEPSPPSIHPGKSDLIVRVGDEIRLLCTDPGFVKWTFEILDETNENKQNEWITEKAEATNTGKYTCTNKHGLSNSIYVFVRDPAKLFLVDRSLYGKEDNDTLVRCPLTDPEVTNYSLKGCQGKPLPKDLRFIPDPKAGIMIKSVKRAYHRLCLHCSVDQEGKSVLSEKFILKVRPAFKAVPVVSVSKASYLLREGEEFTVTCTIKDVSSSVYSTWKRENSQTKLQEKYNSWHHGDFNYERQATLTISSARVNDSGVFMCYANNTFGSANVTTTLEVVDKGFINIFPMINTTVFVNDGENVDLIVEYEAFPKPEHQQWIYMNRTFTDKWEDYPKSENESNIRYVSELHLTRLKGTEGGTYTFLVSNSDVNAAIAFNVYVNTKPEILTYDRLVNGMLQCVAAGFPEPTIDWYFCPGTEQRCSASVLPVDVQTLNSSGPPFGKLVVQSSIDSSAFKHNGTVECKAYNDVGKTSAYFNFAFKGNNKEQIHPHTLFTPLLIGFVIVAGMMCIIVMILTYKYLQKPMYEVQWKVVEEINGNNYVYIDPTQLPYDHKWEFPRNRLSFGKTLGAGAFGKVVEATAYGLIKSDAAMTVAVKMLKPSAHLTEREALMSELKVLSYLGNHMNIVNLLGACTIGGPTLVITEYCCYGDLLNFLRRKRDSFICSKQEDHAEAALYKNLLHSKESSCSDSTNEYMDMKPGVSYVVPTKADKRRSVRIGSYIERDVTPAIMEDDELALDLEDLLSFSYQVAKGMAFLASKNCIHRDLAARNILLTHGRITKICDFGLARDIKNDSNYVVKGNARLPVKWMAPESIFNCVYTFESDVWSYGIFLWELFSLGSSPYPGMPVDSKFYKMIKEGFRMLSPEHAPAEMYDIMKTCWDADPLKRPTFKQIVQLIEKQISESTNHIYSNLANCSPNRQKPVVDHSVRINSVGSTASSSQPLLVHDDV
MEASUREMENT_PROTOCOL: Inhibitory activity against c-kit autophosphorylation (MO7e cells, h-SCF)
Assay type: cell-based
ASSAY_CONDITIONS: MO7e cells, 50 ng/ml h-SCF; read-out: c-kit IC50
READOUT_TYPE: IC50 (nM)

molecule="CCCC(CCN(CC)CC)OC(=O)Nc1ccc(Oc2ccnc3cc(OC)c(OC)cc23)c(C)c1C (stereo not drawn) [Example 443]" readout_number=627
molecule="COc1cc2nccc(Oc3cc(C)c(NC(=O)OC4CCOCC4)cc3C)c2cc1OC [Example 471]" readout_number=237
molecule="COc1cc(Oc2ncnc3cc(OC)c(OC)cc23)ccc1NC(=O)NC1CCN(Cc2ccccc2)CC1 [Example 641]" readout_number=293

----------
TESTED_TARGET: PDGF-Ra (Homo sapiens, UniProt P16234)
Construct: host or cells: G-292 human osteosarcoma cells
Sequence (P16234 24-1089): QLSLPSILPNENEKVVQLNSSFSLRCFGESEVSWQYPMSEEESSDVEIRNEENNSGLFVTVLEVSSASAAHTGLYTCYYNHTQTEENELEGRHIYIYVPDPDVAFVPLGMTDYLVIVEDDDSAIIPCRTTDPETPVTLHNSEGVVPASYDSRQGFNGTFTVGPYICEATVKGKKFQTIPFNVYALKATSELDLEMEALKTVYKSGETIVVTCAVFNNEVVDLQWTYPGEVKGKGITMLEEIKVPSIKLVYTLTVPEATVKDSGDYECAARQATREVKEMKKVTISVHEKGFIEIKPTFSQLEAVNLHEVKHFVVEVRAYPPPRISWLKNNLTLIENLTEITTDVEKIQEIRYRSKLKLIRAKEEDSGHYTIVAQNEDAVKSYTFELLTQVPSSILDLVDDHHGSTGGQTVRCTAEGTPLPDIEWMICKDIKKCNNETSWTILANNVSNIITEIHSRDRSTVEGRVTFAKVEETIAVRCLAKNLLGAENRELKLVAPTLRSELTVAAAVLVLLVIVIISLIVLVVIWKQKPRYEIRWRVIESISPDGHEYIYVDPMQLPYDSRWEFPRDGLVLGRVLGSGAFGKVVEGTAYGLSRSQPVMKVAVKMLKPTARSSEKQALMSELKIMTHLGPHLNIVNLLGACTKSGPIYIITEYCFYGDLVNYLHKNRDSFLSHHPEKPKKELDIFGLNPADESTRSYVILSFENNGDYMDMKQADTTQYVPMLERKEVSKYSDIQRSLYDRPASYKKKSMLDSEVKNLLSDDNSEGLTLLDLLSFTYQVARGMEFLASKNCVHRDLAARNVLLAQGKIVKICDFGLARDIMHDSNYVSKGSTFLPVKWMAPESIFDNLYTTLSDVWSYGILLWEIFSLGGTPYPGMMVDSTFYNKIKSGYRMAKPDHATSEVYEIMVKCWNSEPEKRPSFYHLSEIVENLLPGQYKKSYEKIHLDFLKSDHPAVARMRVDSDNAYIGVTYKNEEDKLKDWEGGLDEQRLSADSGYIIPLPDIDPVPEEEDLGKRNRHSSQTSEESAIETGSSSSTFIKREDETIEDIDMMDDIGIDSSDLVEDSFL
MEASUREMENT_PROTOCOL: Inhibitory activity against PDGF-Ra phosphorylation by PDGF-AA stimulation using G292
Format: cell-based
ASSAY_CONDITIONS: > means inhibition at indicated concentration not more than 50%, < and << not less than 50%; read-out: PDGF (E) IC50
READOUT_TYPE: IC50 (nM)

compound="COc1cc2nccc(Oc3ccc(NC(=S)NC(=O)c4ccc(I)cc4)c(F)c3)c2cc1OC [Example 967]" tested_target="PDGF-Ra (Homo sapiens, UniProt P16234)" result_qualifier== readout_number=20
compound="COc1cc2ncnc(Oc3ccc(NC(=O)NCCN4CCCCC4)c([N+](=O)[O-])c3)c2cc1OC [Example 679]" tested_target="PDGF-Ra (Homo sapiens, UniProt P16234)" result_qualifier=< readout_number=10
compound="COc1cc2nccc(Oc3ccc(NC(=S)NC(=O)Cc4ccccc4[N+](=O)[O-])cc3Cl)c2cc1OC [Example 736]" tested_target="PDGF-Ra (Homo sapiens, UniProt P16234)" result_qualifier== readout_number=72
compound="C#CCC(CC)OC(=O)N(C)c1ccc(Oc2ncnc3cc(OC)c(OC)cc23)cc1 (centres unmarked) [Example 495]" tested_target="PDGF-Ra (Homo sapiens, UniProt P16234)" result_qualifier== readout_number=65
compound="CCCCc1ccc(C(=O)NC(=S)Nc2ccc(Oc3ccnc4cc(OC)c(OC)cc34)c(F)c2)cc1 [Example 999]" tested_target="PDGF-Ra (Homo sapiens, UniProt P16234)" result_qualifier== readout_number=29
compound="COc1cc2nccc(Oc3ccc(NC(=O)NC4CCN(Cc5ccccc5)CC4)c(C)c3)c2cc1OC [Example 643]" tested_target="PDGF-Ra (Homo sapiens, UniProt P16234)" result_qualifier=> readout_number=100
compound="COc1cc2nccc(Oc3ccc(NC(=O)NCCN4CCCC4)c(C)c3C)c2cc1OC [Example 620]" tested_target="PDGF-Ra (Homo sapiens, UniProt P16234)" result_qualifier=< readout_number=10
compound="COc1cc2nccc(Oc3ccc(NC(=O)NCCN4CCOCC4)c(C)c3C)c2cc1OC [Example 617]" tested_target="PDGF-Ra (Homo sapiens, UniProt P16234)" result_qualifier=< readout_number=10
compound="COc1cc2nccc(Oc3cc(C)c(NC(=O)NCCN(C)C)cc3C)c2cc1OC [Example 625]" tested_target="PDGF-Ra (Homo sapiens, UniProt P16234)" result_qualifier=> readout_number=100
compound="CCN(C(=O)OCc1ccccc1OC)c1ccc(Oc2ncnc3cc(OC)c(OC)cc23)cc1Cl [Example 485]" tested_target="PDGF-Ra (Homo sapiens, UniProt P16234)" result_qualifier=> readout_number=100
compound="COc1cc2ncnc(Oc3ccc(NC(=S)NC(=O)c4ccncc4)cc3)c2cc1OC [Example 1155]" tested_target="PDGF-Ra (Homo sapiens, UniProt P16234)" result_qualifier== readout_number=17
compound="COc1cc2nccc(Oc3ccc(NCCCOc4ccccc4)cc3)c2cc1OC [Example 885]" tested_target="PDGF-Ra (Homo sapiens, UniProt P16234)" result_qualifier=< readout_number=3
compound="COc1cc2nccc(Oc3ccc(NC(=S)NC(=O)CCCc4ccccc4)cc3)c2cc1OC [Example 725]" tested_target="PDGF-Ra (Homo sapiens, UniProt P16234)" result_qualifier=< readout_number=10
compound="COc1cc2ncnc(Oc3ccc(NC(=O)NN4CCCCC4)cc3)c2cc1OC [Example 603]" tested_target="PDGF-Ra (Homo sapiens, UniProt P16234)" result_qualifier=> readout_number=100
compound="COc1cc2ncnc(Oc3ccc(NC(=S)NC(=O)CC4CCCCC4)cc3)c2cc1OC [Example 705]" tested_target="PDGF-Ra (Homo sapiens, UniProt P16234)" result_qualifier=< readout_number=10
compound="COc1cc2ncnc(Oc3ccc(N(C)C(=O)OCc4ccccc4C)cc3)c2cc1OC [Example 491]" tested_target="PDGF-Ra (Homo sapiens, UniProt P16234)" result_qualifier== readout_number=24
compound="COc1cc2ncnc(Oc3ccc(NC(=O)N[C@@H]4CCN(Cc5ccccc5)C4)c([N+](=O)[O-])c3)c2cc1OC [Example 577]" tested_target="PDGF-Ra (Homo sapiens, UniProt P16234)" result_qualifier== readout_number=14
compound="CCN(CC)CCOC(=O)Nc1ccc(Oc2ccnc3cc(OC)c(OC)cc23)cc1 [Example 435]" tested_target="PDGF-Ra (Homo sapiens, UniProt P16234)" result_qualifier== readout_number=33
compound="COc1cc2nccc(Oc3ccc(NC(=S)NC(=O)c4cc(C)oc4C)cc3Cl)c2cc1OC [Example 699]" tested_target="PDGF-Ra (Homo sapiens, UniProt P16234)" result_qualifier== readout_number=13
compound="CCN(CC)CCCOC(=O)Nc1ccc(Oc2ccnc3cc(OC)c(OC)cc23)cc1 [Example 426]" tested_target="PDGF-Ra (Homo sapiens, UniProt P16234)" result_qualifier== readout_number=22
compound="COc1cc2ncnc(Oc3ccc(NC(=S)NC(=O)Cc4ccc5ccccc5c4)cc3)c2cc1OC [Example 711]" tested_target="PDGF-Ra (Homo sapiens, UniProt P16234)" result_qualifier=> readout_number=100
compound="COc1cc2ncnc(Oc3ccc(NC(=O)Oc4ccccc4C#N)cc3)c2cc1OC [Example 456]" tested_target="PDGF-Ra (Homo sapiens, UniProt P16234)" result_qualifier=> readout_number=100
compound="COc1cc2ncnc(Oc3ccc(NC(=O)OCCN4CCOCC4)cc3)c2cc1OC [Example 399]" tested_target="PDGF-Ra (Homo sapiens, UniProt P16234)" result_qualifier== readout_number=63
compound="COc1cc2nccc(Oc3ccc(NC(=O)NC4CCN(Cc5ccccc5)CC4)cc3C)c2cc1OC [Example 642]" tested_target="PDGF-Ra (Homo sapiens, UniProt P16234)" result_qualifier=> readout_number=100
compound="COc1cc2ncnc(Oc3ccc(NC(=S)NC(=O)c4ccccc4F)cc3)c2cc1OC [Example 1161]" tested_target="PDGF-Ra (Homo sapiens, UniProt P16234)" result_qualifier=< readout_number=10
compound="COc1cc2nccc(Oc3cc(C)c(NCCOc4c(OC)cccc4OC)cc3C)c2cc1OC [Example 896]" tested_target="PDGF-Ra (Homo sapiens, UniProt P16234)" result_qualifier== readout_number=96
compound="CCCCCC(C)OC(=O)Nc1ccc(Oc2ccnc3cc(OC)c(OC)cc23)cc1 (centres unmarked) [Example 411]" tested_target="PDGF-Ra (Homo sapiens, UniProt P16234)" result_qualifier== readout_number=17
compound="COc1cc2nccc(Oc3ccc(NC(=O)NCCN(C(C)C)C(C)C)cc3)c2cc1OC [Example 654]" tested_target="PDGF-Ra (Homo sapiens, UniProt P16234)" result_qualifier== readout_number=19
compound="COc1cc2nccc(Oc3ccc(NC(=S)NC(=O)CCc4ccccc4)cc3F)c2cc1OC [Example 1028]" tested_target="PDGF-Ra (Homo sapiens, UniProt P16234)" result_qualifier=< readout_number=10

These data points were gathered from patent US7135466B2.
